Below, each entry is listed alongside its reported pIC50.
target: T1, mouse albumin (mouse, UniProt P07724 25-608); assay: SA08b peptide competition ELISA
T1 construct: bought (Sigma); also called MSA; MuSA
T1 sequence (P07724 25-608 limits assumed): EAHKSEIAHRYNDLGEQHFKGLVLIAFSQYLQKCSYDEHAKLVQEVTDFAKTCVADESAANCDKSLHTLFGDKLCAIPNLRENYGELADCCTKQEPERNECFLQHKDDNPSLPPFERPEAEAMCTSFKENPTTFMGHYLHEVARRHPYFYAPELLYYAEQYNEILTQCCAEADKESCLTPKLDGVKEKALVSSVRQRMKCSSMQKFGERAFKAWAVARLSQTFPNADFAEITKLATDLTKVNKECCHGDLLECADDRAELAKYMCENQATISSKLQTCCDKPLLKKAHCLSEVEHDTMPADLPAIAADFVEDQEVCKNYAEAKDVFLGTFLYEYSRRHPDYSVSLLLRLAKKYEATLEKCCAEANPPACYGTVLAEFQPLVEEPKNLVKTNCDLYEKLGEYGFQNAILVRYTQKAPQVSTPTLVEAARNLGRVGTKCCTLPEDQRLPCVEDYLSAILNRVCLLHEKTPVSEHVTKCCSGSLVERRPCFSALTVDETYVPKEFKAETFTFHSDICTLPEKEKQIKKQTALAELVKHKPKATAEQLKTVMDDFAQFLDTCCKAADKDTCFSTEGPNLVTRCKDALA
Bridges are numbered along the chain shown (N, C = ends). Where no end group is shown, it is not given here.
pIC50 is defined as minus the log10 of a concentration measured in mol/L.

Example entries begin here.
binder="Ac-QGLIGDICLPRWGCLWGDSVK-NH2 (disulfide 8-14 (inferred), synthetic; disulfide oxidised) [SA08]" measuredendpoint=pIC50 observedvalue=7.92
binder="Ac-RLIEDICLPRWGCLWEDD-NH2 (disulfide 7-13 (inferred), synthetic; disulfide oxidised) [SA21]" measuredendpoint=pIC50 observedvalue=8.15
binder="GEWWEDICLPRWGCLWEEED-NH2 (disulfide 8-14 (inferred), synthetic) [SA15]" measuredendpoint=pIC50 observedvalue=8.30

Switching to the query record.
Entry QRLMEDICLPRWGCLWEDDF-NH2 (disulfide 8-14, synthetic; disulfide oxidised) [SA06] , pIC50 reported as 8.22
